# Subject Of Test: Beta-1 adrenergic receptor (Homo sapiens, UniProt P08588)
# Sequence (P08588 whole entry, looked up): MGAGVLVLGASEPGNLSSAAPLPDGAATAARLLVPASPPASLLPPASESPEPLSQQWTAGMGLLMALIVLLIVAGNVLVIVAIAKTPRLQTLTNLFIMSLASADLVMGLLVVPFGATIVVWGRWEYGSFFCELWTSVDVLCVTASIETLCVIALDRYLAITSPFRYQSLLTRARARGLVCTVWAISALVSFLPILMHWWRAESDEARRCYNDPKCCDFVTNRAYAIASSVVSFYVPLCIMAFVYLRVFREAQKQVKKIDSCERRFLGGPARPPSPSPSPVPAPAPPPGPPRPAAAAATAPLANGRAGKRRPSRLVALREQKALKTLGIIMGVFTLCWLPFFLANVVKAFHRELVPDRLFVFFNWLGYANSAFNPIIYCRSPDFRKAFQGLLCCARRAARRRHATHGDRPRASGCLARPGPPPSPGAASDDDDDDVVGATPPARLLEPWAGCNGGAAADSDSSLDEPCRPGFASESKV
# Protocol Text: Agonistic activity at human Beta-1 adrenergic receptor at 1000 nM concentration
# Type: functional
Observable: Activity

* CS(=O)(=O)Oc1cccc2c(CCNC[C@H](O)c3cccc(NS(=O)(=O)c4ccccc4)c3)c[nH]c12 | 14%
* CS(=O)(=O)Oc1cccc2c(CCNC[C@H](O)c3cccc(NS(=O)(=O)c4ccc(N)cc4)c3)c[nH]c12 | 5%
* Cc1cccc2c(CCNC[C@H](O)c3cccc(NS(=O)(=O)c4cccs4)c3)c[nH]c12 | 3%

Now let's try a different one.
Name the recorded Activity for CS(=O)(=O)Oc1cccc2c(CCNC[C@H](O)c3cccc(NS(=O)(=O)c4cccc(Cl)c4)c3)c[nH]c12 . 11%

* * *

For each of the compounds below, state its Activity.
# Subject Of Test: Beta-2 adrenergic receptor (Homo sapiens, UniProt P07550)
# Sequence (P07550 whole entry, looked up): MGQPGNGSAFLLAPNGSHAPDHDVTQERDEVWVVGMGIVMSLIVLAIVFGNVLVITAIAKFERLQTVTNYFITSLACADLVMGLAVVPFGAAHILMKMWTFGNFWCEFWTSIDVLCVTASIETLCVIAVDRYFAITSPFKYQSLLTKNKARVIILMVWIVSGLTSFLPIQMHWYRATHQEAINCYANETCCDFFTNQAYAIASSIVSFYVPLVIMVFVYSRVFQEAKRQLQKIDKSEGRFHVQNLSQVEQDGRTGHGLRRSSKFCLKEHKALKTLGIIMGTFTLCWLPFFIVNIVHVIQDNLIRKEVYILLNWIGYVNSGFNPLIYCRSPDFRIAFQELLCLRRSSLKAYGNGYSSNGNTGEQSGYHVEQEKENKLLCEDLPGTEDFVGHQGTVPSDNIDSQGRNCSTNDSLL
# Protocol Text: Agonistic activity at human Beta-2 adrenergic receptor at 1000 nM concentration
# Type: functional
Answers are plain numbers, in %.

• O=S(=O)(Nc1cccc([C@@H](O)CNCCc2c[nH]c3c(OCc4ccccc4)cccc23)c1)c1cccs1 = 32
• O=S(=O)(Nc1cccc([C@@H](O)CNCCc2c[nH]c3ccccc23)c1)c1cccs1 = 15
• COc1cccc(S(=O)(=O)Nc2cccc([C@@H](O)CNCCc3c[nH]c4c(OS(C)(=O)=O)cccc34)c2)c1 = 10
• Cc1cccc2c(CCNC[C@H](O)c3cccc(NS(=O)(=O)c4cccs4)c3)c[nH]c12 = 9

For each listed entry, give its Activity.
1. CS(=O)(=O)Oc1cccc2c(CCNC[C@H](O)c3cccc(NS(=O)(=O)c4ccc(Br)s4)c3)c[nH]c12
2. CS(=O)(=O)Oc1cccc2c(CCNC[C@H](O)c3cccc(NS(=O)(=O)CC(F)(F)F)c3)c[nH]c12

1. 17
2. 24

Record Activity for all entries; do not skip any.
1. CS(=O)(=O)Oc1cccc2c(CCNC[C@H](O)c3cccc(NS(=O)(=O)c4cccc(N)c4)c3)c[nH]c12
2. CS(=O)(=O)Oc1cccc2c(CCNC[C@H](O)c3cccc(NS(=O)(=O)c4ccc(N)cc4)c3)c[nH]c12

1. 6
2. 15

* * *

# Subject Of Test: Beta-3 adrenergic receptor (Homo sapiens, UniProt P13945)
# Sequence (P13945 whole entry, looked up): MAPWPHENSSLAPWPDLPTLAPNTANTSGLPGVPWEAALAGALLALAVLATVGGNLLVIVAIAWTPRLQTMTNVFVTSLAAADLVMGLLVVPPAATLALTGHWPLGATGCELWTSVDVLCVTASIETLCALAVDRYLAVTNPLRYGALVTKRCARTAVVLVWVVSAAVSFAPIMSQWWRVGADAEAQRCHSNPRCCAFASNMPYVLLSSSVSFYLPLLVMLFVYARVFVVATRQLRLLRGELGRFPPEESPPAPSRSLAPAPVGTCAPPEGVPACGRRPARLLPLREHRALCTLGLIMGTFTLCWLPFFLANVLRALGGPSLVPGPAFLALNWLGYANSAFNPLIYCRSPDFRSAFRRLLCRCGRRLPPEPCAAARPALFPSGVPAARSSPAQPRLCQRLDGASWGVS
# Protocol Text: Intrinsic activity expressed as percentage of maximal stimulation with isoproterenol of Beta-3 adrenergic receptor
# Format: functional
I'd appreciate it if you could supply IA values for the items below.
Answers are plain numbers, in %.

Below are worked cases with known answers.
• CS(=O)(=O)Oc1cccc2c(CCNC[C@H](O)c3cccc(NS(=O)(=O)c4cccs4)c3)c[nH]c12 = 89
• COc1cccc2c(CCNC[C@H](O)c3cccc(NS(=O)(=O)c4cccs4)c3)c[nH]c12 = 87
• CS(=O)(=O)Oc1cccc2c(CCNC[C@H](O)c3cccc(NS(=O)(=O)c4cccc(F)c4)c3)c[nH]c12 = 97
• O=S(=O)(Nc1cccc([C@@H](O)CNCCc2c[nH]c3ccccc23)c1)c1cccs1 = 73
• COc1cccc(S(=O)(=O)Nc2cccc([C@@H](O)CNCCc3c[nH]c4c(OS(C)(=O)=O)cccc34)c2)c1 = 97
• CS(=O)(=O)Oc1cccc2c(CCNC[C@H](O)c3cccc(NS(=O)(=O)c4ccccc4)c3)c[nH]c12 = 86
• CS(=O)(=O)Oc1cccc2c(CCNC[C@H](O)c3cccc(NS(=O)(=O)c4ccc(Br)s4)c3)c[nH]c12 = 82

Now take the following compound into account.
I have this compound here, Cc1cccc2c(CCNC[C@H](O)c3cccc(NS(=O)(=O)c4cccs4)c3)c[nH]c12 , and I need its recorded IA. 77
